molecular target: LPA2 (Homo sapiens, UniProt Q9HBW0); test: Ca2+ transients in RH7777 cells expressing LPA2 (agonist / inhibition of LPA response)
Sequence (Q9HBW0 whole entry, species assumed): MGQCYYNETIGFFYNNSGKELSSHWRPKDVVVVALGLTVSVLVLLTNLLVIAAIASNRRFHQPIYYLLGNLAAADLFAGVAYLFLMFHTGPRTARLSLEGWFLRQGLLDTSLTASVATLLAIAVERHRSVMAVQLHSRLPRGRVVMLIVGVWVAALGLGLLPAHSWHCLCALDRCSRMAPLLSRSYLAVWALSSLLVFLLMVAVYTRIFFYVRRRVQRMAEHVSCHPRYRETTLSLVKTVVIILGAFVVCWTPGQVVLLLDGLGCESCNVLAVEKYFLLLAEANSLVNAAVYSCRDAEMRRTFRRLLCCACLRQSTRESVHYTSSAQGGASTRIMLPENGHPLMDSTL
pIC50: −log10 of the molar value.
Experimental endpoint: pIC50

                                   compound                               system  result
0  CCCCCCCC/C=C\CCCCCCC[C@H]1OC[C@H](COP(O)(O)=S)O1 [Analog 24]  LPA2 (Homo sapiens, UniProt Q9HBW0)  < 4.52
1  CCCCCCCCc1ccc(CCCCCCC2OCC(COP(=O)(O)O)O2)cc1 (centres unmarked) [Analog 14]  LPA2 (Homo sapiens, UniProt Q9HBW0)  < 4.52
2  CCCCCCCCc1ccc(CCCCCCC2OCC(COP([O-])(O)=S)O2)cc1.[K+] (centres unmarked) [Analog 15]  LPA2 (Homo sapiens, UniProt Q9HBW0)  < 4.52
3  CCCCCCCC/C=C\CCCCCCC[C@@H]1OC[C@H](COP(O)(O)=S)O1 [Analog 22]  LPA2 (Homo sapiens, UniProt Q9HBW0)  < 4.52
4  CCCCCCCC/C=C\CCCCCCC[C@@H]1OC[C@@H](COP(O)(O)=S)O1 [Analog 28]  LPA2 (Homo sapiens, UniProt Q9HBW0)  < 4.52

Where these numbers come from: patent US20060270634A1
